Test system: Pepsin
Construct: purchased Merck Millipore
TEST_PROTOCOL: Protease stability in simulated gastric fluid (Pepsin-SGF, FaSSGF)
Assay type: in vitro ADME
ASSAY_CONTEXT: simulated gastric fluid with pepsin (Pepsin-SGF), 60 min, 1 μM peptide, 37° C., read-out: FaSSGF 60 (min), remaining percent of peptide
Method: Studies were carried out in simulated intestinal fluid (SIF) and simulated gastric fluid (SGF) to evaluate gastric stability of the peptide compounds disclosed herein. […] To 76 μL of the Pepsin-SGF buffer, 4 μL of the 20 μM peptide stock solution was added and incubated at 37° C. […] The samples were centrifuged for 20 minutes and an aliquot of the supernatant 100 μL were transferred to a LoBind-MTP plate and analyzed by LCMS/MS. […]
Starred links: 1 amine or outer side, 2 acyl side, 3 side chain; linkers in the order of their positions; H or OH if unused. Positions of bridges follow the written chain, without caps; N, C: chain ends. Non-standard residues stand in square brackets, D forms with d. Residues, ends and D or L forms follow the SMILES beside them. *: point of attachment. Trp(7-Me) = Cc1cccc2c(C[C@H](N)C(=O)O)c[nH]c12; X1 = O=C(CCCCN[*:3])N[C@@H](CS[*:2])C(=O)[*:1]; 2Nal = N[C@@H](Cc1ccc2ccccc2c1)C(=O)O; NMe5Ava = CN(CCCCC(=O)[*:2])[*:1]; 3Pal = N[C@@H](Cc1cccnc1)C(=O)O; αMeL = CC(C)C[C@](C)(N)C(=O)O; Thp = NC1(C(=O)O)CCOCC1; Me2NCH2CH2 = CN(C)CC*; Aib = CC(C)(N)C(=O)O; Ava = NCCCCC(=O)O; Sar = CNCC(=O)O
MEASURED_ENDPOINT: remaining at 1 h, 1 µM (%)
# value in %; strip the unit string

// solved cases for remaining at 1 h, 1 µM follow
>>> measured("C[C@@H](O)[C@@H]1NC(=O)[C@H](CC(N)=O)NC(=O)[C@@H]2CSSC[C@H](NC(=O)[C@H](CCC(N)=O)NC(=O)[C@H](Cc3c[nH]c4ccccc34)NC1=O)C(=O)N[C@@H](Cc1ccc(OCCN(C)C)cc1)C(=O)N[C@@H](Cc1ccc3ccccc3c1)C(=O)NC1(CCOCC1)C(=O)N[C@H](C(=O)N[C@@H](CC(N)=O)C(=O)N[C@@H](CC(N)=O)C(N)=O)CCC(=O)NCCCCC(=O)N2 [compound 26] ([Ava]CNTWQCY(Me2NCH2CH2)[2Nal][Thp]ENN-NH2; disulfide 2-7; lactam N-11)")
95
>>> measured("Cc1cccc2c(C[C@@H]3NC(=O)[C@H]([C@@H](C)O)NC(=O)[C@H](CC(N)=O)NC(=O)[C@@H]4CSSC[C@H](NC(=O)[C@H](CC(C)C)NC3=O)C(=O)N[C@@H](Cc3ccc(OCCN(C)C)cc3)C(=O)N[C@@H](Cc3ccc5ccccc5c3)C(=O)NC3(CCOCC3)C(=O)N[C@H](C(=O)N[C@@H](CC(N)=O)C(=O)N[C@@H](Cc3cccnc3)C(=O)N(C)CC(N)=O)CCC(=O)NCCCCC(=O)N4)c[nH]c12 [compound 24] ([Ava]CNT[Trp(7-Me)]LCY(Me2NCH2CH2)[2Nal][Thp]EN[3Pal][Sar]-NH2; disulfide 2-7; lactam N-11)")
84
>>> measured("CC(=O)N[C@H]1CCCCNC(=O)[C@@H]2CSSC[C@H](NC(=O)[C@H](CCC(N)=O)NC(=O)[C@H](Cc3c[nH]c4ccccc34)NC1=O)C(=O)N[C@@H](Cc1ccc(OCCN(C)C)cc1)C(=O)N[C@@H](Cc1ccc3ccccc3c1)C(=O)NC(C)(C)C(=O)N[C@H](C(=O)N[C@@H](CC(N)=O)C(=O)NCC(N)=O)CCC(=O)NCCCCC(=O)N2 [compound 29] (Ac-KWQCY(Me2NCH2CH2)[2Nal][Aib]ENG-NH2; linker 1-4-8 via X1)")
70

Suppose we examine the molecule CC(C)C[C@]1(C)NC(=O)[C@H](Cc2ccc3ccccc3c2)NC(=O)[C@H](Cc2ccc(OCCN(C)C)cc2)NC(=O)[C@@H]2CSSC[C@H](NC(=O)CCCCN(C)C(=O)CC[C@@H](C(=O)N[C@@H](CC(N)=O)C(=O)N[C@@H](CC(N)=O)C(N)=O)NC1=O)C(=O)N[C@@H](CC(N)=O)C(=O)N[C@@H]([C@@H](C)O)C(=O)N[C@@H](Cc1c[nH]c3ccccc13)C(=O)N[C@@H](CCC(N)=O)C(=O)N2 [compound 41] ([NMe5Ava]CNTWQCY(Me2NCH2CH2)[2Nal][αMeL]ENN-NH2; disulfide 2-7; lactam N-11) ; what remaining at 1 h, 1 µM value has been reported?
90

Ref: patent US20260258084A1
